Entries and their measured pKi follow.
system.name: Neuropeptide FF receptor 2 (Rattus norvegicus)
Sequence (Q9EQD2 whole entry): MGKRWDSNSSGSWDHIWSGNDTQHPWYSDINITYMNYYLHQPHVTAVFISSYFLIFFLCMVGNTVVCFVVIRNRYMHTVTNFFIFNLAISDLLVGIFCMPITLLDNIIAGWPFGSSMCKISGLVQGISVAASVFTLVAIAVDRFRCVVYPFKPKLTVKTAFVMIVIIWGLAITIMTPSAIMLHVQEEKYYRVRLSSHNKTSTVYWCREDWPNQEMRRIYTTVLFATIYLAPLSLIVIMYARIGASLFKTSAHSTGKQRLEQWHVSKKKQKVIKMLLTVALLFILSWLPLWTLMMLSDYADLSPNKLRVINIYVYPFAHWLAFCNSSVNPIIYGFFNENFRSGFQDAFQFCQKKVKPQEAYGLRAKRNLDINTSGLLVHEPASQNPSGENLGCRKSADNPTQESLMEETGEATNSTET
experiment.summary: Binding affinity for NPPF receptor in rat spinal cord membranes using the radioligand [125I]-[Tyr1]NPFF
Type: cell membranes, Membrane
pKi: −log10 of the molar value.
value.type: pKi

substance=H-FLFGPQRF-NH2 system_name="Neuropeptide FF receptor 2 (Rattus norvegicus)" recorded_value=8.00
substance=H-FLYQPQRF-NH2 system_name="Neuropeptide FF receptor 2 (Rattus norvegicus)" recorded_value=9.66
substance=H-FLFQPGRF-NH2 system_name="Neuropeptide FF receptor 2 (Rattus norvegicus)" recorded_value=9.22
substance=H-FLFQGQRF-NH2 system_name="Neuropeptide FF receptor 2 (Rattus norvegicus)" recorded_value=8.92
